study system: pooled human IgG
Enzyme Activity Endpoint Assay (purified): IgG overview
Answer with a number only, understood to be in ng/µL.

protein | reported measurement
PRT-250 (protein) MVTSVWTKGVTPPTNFTYGEDVLHAPYVANQGWYDITKLFNGKDDLLCGAATAGNMLHWWFDQNKEQIENYLKKHPEKQKINFNGEQMFDVKEAIDTKDSQLDSKLFDYFKEKAFPNLSTKHLGVFPDHVIDMFINGYRLSLLNHGPTPVKRGSKDPRGGIFDAVFTRGDQSKLLTNRHDFKEKTLKEISDLIKQELTEGKALGISHTYANGRINHVINLWGADFDAEGNLEAIYVTDSDSNPSIGMKKYFVGVNSSGKVAISAKEIEEDNIGAQVLGLFTLSTGQDIWNQTN | 86

Measured Enzyme Activity Endpoint Assay (purified): IgG, PRT-622 (protein) MQITSVWTKGVTPLTPEQFRYNNEDVIHAPYLAHQGWYDITKAFDGKDNLLCGAATAGNMLHWWFDQNKTEIEAYLSKHPEKQKIIFNNQELFDLKAAIDTKDSQTNSQLFNYFRDKAFPNLSARQLGVMPDLVLDMFINGYYLNVFKTQSTDVNRPYQDKDKRGGIFDAVFTRGDQTTLLTARHDLKNKTLKEISDIIKQELQSGRALALSHTYANVSISHVINLWGADFNSEGNLIAIYVTDSDANASIGMKKYFVGINAHGHVAISAKKIEGENIGAQVLGLFTLSSGKDIWQKLSLEHHHHHH : 0
